molecular target: HLA A*02:01 class I molecules (Homo sapiens, UniProt P04439, D140Y/D185E/D98H/E176V/E277Q/G131W/G231S/I119V/I121R/I166T/I218V/L300P/L318F/N151K/N90K/P208A/P217A/Q86G/Q94H/R138H/R169H/T345S); test: MHC-peptide competitive binding assay; conditions: reducing conditions, 1 mM 2-ME added
Measurement type: IC50 2-ME (ng/mL)
The reply should be a number in ng/mL, with the unit left off.

Consider the following illustrative entries.
> print(dat)
   substance  measurement.type  readout.units  readout.value
1  CISSBNPNL         IC50 2-ME          ng/mL            618
2  ILBETCLIV         IC50 2-ME          ng/mL             82
3  BISSCNPNL         IC50 2-ME          ng/mL            250
4  ILCETBLIV         IC50 2-ME          ng/mL             93
5  VLPDVFIRB         IC50 2-ME          ng/mL            2.5

Q) Requested read-out: IC50 2-ME. Entry: `ILCGTBLIV`
A) 885

Q) Now give it for `BQWGRLWQL` too.
A) 93

---

target: HLA A*02:01 class I molecules (Homo sapiens, UniProt P04439, D140Y/D185E/D98H/E176V/E277Q/G131W/G231S/I119V/I121R/I166T/I218V/L300P/L318F/N151K/N90K/P208A/P217A/Q86G/Q94H/R138H/R169H/T345S); assay: MHC-peptide competitive binding assay; details: IC50 No Protease Inhibitors, as standard assay but excluding protease inhibitors
pIC50: −log10 of the molar value. Ends that are not written are not given here.
Respond with met for pIC50 values of 6 and above, not met for values below.

Worked set:
> print(dat)
                          residues  label.class
1   VLPDVFIRC [reference compound]          met
2   SCSRAVPQV [reference compound]      not met
3  ACDPHSGHFV [reference compound]      not met

Attention now turns to another entry.
Q) Given SCSRAIPQV [reference compound] , state whether its pIC50 is at least 6.
A) met

---

target: HLA A*02:01 class I molecules (Homo sapiens, UniProt P04439, D140Y/D185E/D98H/E176V/E277Q/G131W/G231S/I119V/I121R/I166T/I218V/L300P/L318F/N151K/N90K/P208A/P217A/Q86G/Q94H/R138H/R169H/T345S); assay: MHC-peptide competitive binding assay; settings: as standard assay but excluding protease inhibitors
Each entry falls into one class according to its IC50 No Protease Inhibitors; the ranges are low value (below 10 ng/mL), medium value (10 ng/mL to below 600 ng/mL), high value (600 ng/mL or more)

Worked set:
> print(dat)
   substance   label.class
1  ILCETBLIV  medium value
2  BISSCNPNL  medium value
3  RLPRIFCSB  medium value

Q) Hi there! Could you help me figure out the category for `BQWGRLWQL` please?
A) medium value

Q) Now give it for `VLPDVFIRB` too.
A) low value

Q) Now give it for `ILBETCLIV` too.
A) medium value

Q) Now give it for `ILCGTBLIV` too.
A) high value

---

Measured log10 of IC50 by item
biological target: HLA A*02:01 class I molecules (Homo sapiens, UniProt P04439, D140Y/D185E/D98H/E176V/E277Q/G131W/G231S/I119V/I121R/I166T/I218V/L300P/L318F/N151K/N90K/P208A/P217A/Q86G/Q94H/R138H/R169H/T345S); experiment: MHC-peptide competitive binding assay; details: IC50 2-ME, reducing conditions, 1 mM 2-ME added
Ends that are not written are not given here.
log10 IC50, nM

Consider the following illustrative entries.
> print(dat)
                         residues  readout.value
1  HMTEVVRRC [reference compound]           2.96
2  VLPDVFIRC [reference compound]           1.48
3  SCSRAVPQV [reference compound]           3.39

Q) Requested read-out: log10 of IC50. Entry: ACDPHSGHFV [reference compound]
A) 4.10

Q) Now give it for CQWGRLWQL [reference compound] too.
A) 2.11

Q) Now give it for SCSRAIPQV [reference compound] too.
A) 2.32

---

target: HLA A*02:01 class I molecules (Homo sapiens, UniProt P04439, D140Y/D185E/D98H/E176V/E277Q/G131W/G231S/I119V/I121R/I166T/I218V/L300P/L318F/N151K/N90K/P208A/P217A/Q86G/Q94H/R138H/R169H/T345S); test: MHC-peptide competitive binding assay
pIC50: −log10 of the molar value. Ends that are not written are not given here.
Respond with t for pIC50 values of 6 and above, f for values below.

Worked set:
> print(dat)
                         residues  label.class
1  SCSRAVPQV [reference compound]            f
2  HMTEVVRRC [reference compound]            f

Q) Given VLPDVFIRC [reference compound] , state whether its pIC50 is at least 6.
A) t

---

Measured IC50 2-ME by item
target: HLA A*02:01 class I molecules (Homo sapiens, UniProt P04439, D140Y/D185E/D98H/E176V/E277Q/G131W/G231S/I119V/I121R/I166T/I218V/L300P/L318F/N151K/N90K/P208A/P217A/Q86G/Q94H/R138H/R169H/T345S); test: MHC-peptide competitive binding assay; settings: reducing conditions, 1 mM 2-ME added

> print(dat)
   substance  readout.value
1  BISSBNPNL    1,260 ng/ml
2  BISSBNPNP   13,400 ng/ml
3  ILBGTBLIV    1,547 ng/ml
4  RLPRIFCSB       27 ng/mL
5  1LBETBLIV       24 ng/mL

Proceed to the following item.
Q) Requested read-out: IC50 2-ME. Entry: `RLPRIFBSB`
A) 14 ng/mL

---

Measured IC50 No Protease Inhibitors by item
target: HLA A*02:01 class I molecules (Homo sapiens, UniProt P04439, D140Y/D185E/D98H/E176V/E277Q/G131W/G231S/I119V/I121R/I166T/I218V/L300P/L318F/N151K/N90K/P208A/P217A/Q86G/Q94H/R138H/R169H/T345S); test: MHC-peptide competitive binding assay; details: as standard assay but excluding protease inhibitors
The reply should be a number in ng/mL, with the unit left off.

Consider the following illustrative entries.
> print(dat)
   substance  readout.units  readout.value
1  BISSBNPNL          ng/mL            604
2  1LBETBLIV          ng/mL             14
3  ILBGTBLIV          ng/mL            733
4  SLLMWITQB          ng/mL             94

Proceed to the following item.
Q) Requested read-out: IC50 No Protease Inhibitors. Entry: `RLPRIFBSB`
A) 7.2
